system: Fer (mouse); assay: phosphorylation enrichment, bacterial display (enrichment ratio); higher = better substrate or ligand; peptides without Tyr show the background
Mark YES for reported phosphorylation enrichment of 0.6 or greater; mark NO for anything smaller.

Task: Please check the record AGQEEYSAMRD [HRAS_Y64] and state if its phosphorylation enrichment is at or above 0.6.
Result: NO

Task: Now give it for LTVVIYVLIGR [EPHA3_Y561] too.
Result: YES

Task: Now give it for QMQLKYSQSDL [SMC1A_Y714_R711Q] too.
Result: YES

Task: Now give it for IFHLSYLHNCE [PDE6B_Y227_YF] too.
Result: NO

Task: Now give it for PSELFYSKIGP [SMG1_Y2254_YF] too.
Result: YES

Task: Now give it for FVPSNYVAEDR [FRK_Y104_I100V_YF] too.
Result: NO

Task: Now give it for TVNIRYLLFPS [SERAC1_Y548_S543T] too.
Result: NO

Task: Now give it for YARECYSALPQ [SARS2_Y52_G51C] too.
Result: YES

Task: Now give it for RRVLVYGGRGA [QDPR_Y16] too.
Result: YES

Task: Now give it for LADKPYTFEDF [FXN_Y118_YF] too.
Result: YES

Task: Now give it for SSWPDYVRPLP [HSPB1_Y54_G53D] too.
Result: NO

====

molecular target: SHP2-C SH2; test: SH2 binding enrichment of the phosphorylated peptide, bacterial display (enrichment ratio); higher = better substrate or ligand; peptides without Tyr show the background;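 also: peptide library displayed on the E. coli surface as eCPX fusions, selected cells deep-sequenced, score is each peptide's frequency after selection divided by its frequency in the input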
Grouping by measured SH2 binding enrichment is done with the following cut points: lower range (below 0.6), middle range (0.6 to below 0.8), upper range (0.8 or more)

Task: Band for LIQRNYKLTAQ [ALPK2_Y1975_A1978T] ?
Result: upper range

Task: Now give it for GKFRMYVAVWT [F13A1_Y161] too.
Result: middle range

Task: Now give it for QMVRMYASSYM [AVPR2_Y124_G122R] too.
Result: middle range

Task: Now give it for IEDPYYGNDSD [ACP1_Y133] too.
Result: middle range

Task: Now give it for RWGQKYMTAVV [CYBA_Y72] too.
Result: middle range

Task: Now give it for HAVEDYQAIVD [CCT7_Y263_T259A] too.
Result: middle range

Task: Now give it for GKFHMYVAVWT [F13A1_Y161_R159H] too.
Result: upper range

Task: Now give it for KWHREYNSKYV [RICTOR_Y835] too.
Result: upper range

Task: Now give it for ADEEEYEIIAA [FEStide_E_2014] too.
Result: upper range

Task: Now give it for DFPGIYSGFDD [POLR1C_Y33_N32I_YF] too.
Result: lower range

Task: Now give it for DYYDLYGGEKF [PTPN11_Y66] too.
Result: middle range

Task: Now give it for VNCHQYDGLVE [ATP2A2_Y407] too.
Result: upper range

Task: Now give it for HGDDDYDDPEL [CLNK_Y69_S65G] too.
Result: lower range

Task: Now give it for CKLYQYYLDHL [ATRX_Y1849] too.
Result: lower range

Task: Now give it for RLLRGYNQSAY [HLA-C_Y137_D138N] too.
Result: upper range

Task: Now give it for GEDEPYAEPFA [APBA1_Y183_S184A_YF] too.
Result: middle range

Task: Now give it for SEKIVYGHVDD [ACO2_Y71_L74V] too.
Result: upper range

Task: Now give it for GFILMYDITNE [RAB3C_Y110] too.
Result: upper range

Task: Now give it for KDHLDYKFQPR [SOX9_Y172_P170L_YF] too.
Result: middle range

Task: Now give it for RLKAKYAAATG [GLI3_Y933] too.
Result: middle range

Task: Now give it for SSSAIYDNPNL [DCP1B_Y191] too.
Result: lower range

Task: Now give it for FADTAYNFRHG [PAH_Y166_I164T_YF] too.
Result: lower range

Task: Now give it for QQTYTYDSGIH [JUP_Y22] too.
Result: lower range

Task: Now give it for SEPDLYCDPRG [PKP1_Y160] too.
Result: upper range

Task: Now give it for KSIQLYDTPYE [SHB_Y297_G293S] too.
Result: middle range

====

target: FGFR1 (UniProt P11362); experiment: phosphorylation enrichment, bacterial display (enrichment ratio); higher = better substrate or ligand; peptides without Tyr show the background
Sequence (P11362 whole entry, looked up): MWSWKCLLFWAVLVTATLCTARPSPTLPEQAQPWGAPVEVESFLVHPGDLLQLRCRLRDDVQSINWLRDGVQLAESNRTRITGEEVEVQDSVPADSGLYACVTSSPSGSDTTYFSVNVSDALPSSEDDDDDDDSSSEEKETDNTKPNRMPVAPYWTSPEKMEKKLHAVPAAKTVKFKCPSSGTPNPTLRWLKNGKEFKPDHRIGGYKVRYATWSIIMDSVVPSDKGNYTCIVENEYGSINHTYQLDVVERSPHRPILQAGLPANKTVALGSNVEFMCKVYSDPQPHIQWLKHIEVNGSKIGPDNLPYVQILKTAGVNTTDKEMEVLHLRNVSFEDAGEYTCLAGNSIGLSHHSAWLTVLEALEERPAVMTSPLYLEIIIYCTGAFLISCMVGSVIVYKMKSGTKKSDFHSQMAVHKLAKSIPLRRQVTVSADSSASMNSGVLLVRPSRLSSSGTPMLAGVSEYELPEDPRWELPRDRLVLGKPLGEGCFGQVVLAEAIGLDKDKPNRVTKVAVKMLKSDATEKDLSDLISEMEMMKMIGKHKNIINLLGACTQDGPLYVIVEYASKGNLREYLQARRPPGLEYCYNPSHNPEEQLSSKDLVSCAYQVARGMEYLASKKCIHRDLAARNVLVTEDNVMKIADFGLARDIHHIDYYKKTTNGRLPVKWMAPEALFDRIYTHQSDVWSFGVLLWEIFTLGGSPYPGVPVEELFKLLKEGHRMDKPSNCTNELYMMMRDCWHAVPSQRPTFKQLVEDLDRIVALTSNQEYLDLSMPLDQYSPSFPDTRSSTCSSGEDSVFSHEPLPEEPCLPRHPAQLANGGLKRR
Grouping by measured phosphorylation enrichment is done with the following cut points: lo: < 0.5; mid: ≥ 0.5 and < 0.7; hi: ≥ 0.7

Task: Band for EFFDGYWEFSV [ITGA2B_Y265_G267E_YF] ?
Result: hi

Task: Now give it for QYQEKYKQMEQ [HCN4_Y531_V534M] too.
Result: mid

Task: Now give it for DLLNSYIENEG [HSPA4L_Y600] too.
Result: mid

Task: Now give it for KMGNIYRTEYG [MRPL3_Y265] too.
Result: lo

Task: Now give it for IGEGTYRQVYK [CDK13_Y716_G717R] too.
Result: lo

Task: Now give it for ISKTWYSAEQF [CD207_Y217_P213S] too.
Result: mid

Task: Now give it for HYVYYYSYLLK [PTEN_Y178_R173H] too.
Result: hi

Task: Now give it for APQFTYTQGGQ [FLNA_Y1763_A1764T_YF] too.
Result: lo

Task: Now give it for PLLLSYFLIKW [NUP160_Y773_YF] too.
Result: hi

Task: Now give it for ILGRYYERGSI [PAX5_Y73_T75R] too.
Result: lo

Task: Now give it for KKGIVYVFNGR [ITGAV_Y404_I405V] too.
Result: mid

====

target: EPHB2 (UniProt P29323); experiment: phosphorylation enrichment, bacterial display (enrichment ratio); higher = better substrate or ligand; peptides without Tyr show the background
Sequence (P29323 whole entry, looked up): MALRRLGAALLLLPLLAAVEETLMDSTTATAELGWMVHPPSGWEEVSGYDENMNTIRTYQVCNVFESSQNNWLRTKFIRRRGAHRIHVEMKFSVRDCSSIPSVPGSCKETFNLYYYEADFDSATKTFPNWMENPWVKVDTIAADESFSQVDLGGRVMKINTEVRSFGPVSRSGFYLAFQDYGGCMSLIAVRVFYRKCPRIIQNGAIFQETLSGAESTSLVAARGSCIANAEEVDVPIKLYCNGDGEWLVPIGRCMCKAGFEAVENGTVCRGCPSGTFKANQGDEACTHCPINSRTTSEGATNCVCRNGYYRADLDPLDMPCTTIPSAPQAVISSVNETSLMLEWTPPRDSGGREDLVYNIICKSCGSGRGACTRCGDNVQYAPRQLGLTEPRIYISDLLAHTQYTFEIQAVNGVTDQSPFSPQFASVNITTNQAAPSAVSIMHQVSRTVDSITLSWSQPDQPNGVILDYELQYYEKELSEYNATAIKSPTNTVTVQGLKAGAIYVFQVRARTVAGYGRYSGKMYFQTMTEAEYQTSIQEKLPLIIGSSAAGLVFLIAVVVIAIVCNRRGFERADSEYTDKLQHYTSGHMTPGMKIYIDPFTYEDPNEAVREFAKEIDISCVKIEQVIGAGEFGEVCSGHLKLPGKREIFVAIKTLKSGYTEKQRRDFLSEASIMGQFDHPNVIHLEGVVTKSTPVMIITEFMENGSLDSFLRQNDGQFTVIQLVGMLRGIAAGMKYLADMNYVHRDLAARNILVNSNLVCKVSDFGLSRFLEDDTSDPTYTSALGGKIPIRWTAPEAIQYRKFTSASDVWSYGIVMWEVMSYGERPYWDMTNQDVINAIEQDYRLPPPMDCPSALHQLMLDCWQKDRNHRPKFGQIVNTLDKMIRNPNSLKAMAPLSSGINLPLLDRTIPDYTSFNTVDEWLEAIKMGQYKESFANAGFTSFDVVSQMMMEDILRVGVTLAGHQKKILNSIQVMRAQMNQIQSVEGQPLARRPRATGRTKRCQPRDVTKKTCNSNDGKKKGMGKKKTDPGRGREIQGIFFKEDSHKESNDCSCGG
Record form. Attribute: phosphorylation enrichment. Fill in for each entry.
Please reply with the number alone, leaving off any unit.

Task: Please report the recorded phosphorylation enrichment for NGPDVYVLPLT [AATK_Y93] .
Result: 0.511

Task: Now give it for GLSDLYVKIHL [SYT2_Y309_P308L] too.
Result: 0.615

Task: Now give it for CTTIHYNFRCN [TP53_Y234_M237R_YF] too.
Result: 0.499

Task: Now give it for KHCEDYVFSYN [DSC1_Y846_C848F] too.
Result: 0.719

Task: Now give it for SVTCTNSPALN [TP53_Y126_Y126N] too.
Result: 0.483

Task: Now give it for DFLEKYFKFGS [NNMT_Y24_YF] too.
Result: 0.587

Task: Now give it for LFNQDYPIHSV [GATM_Y227_YF] too.
Result: 0.787

Task: Now give it for VMLENYSNLLS [ZFP69_Y109_V113L] too.
Result: 0.864

Task: Now give it for LLVVLNKYRCY [PSEN1_Y154_Y154N] too.
Result: 0.875

Task: Now give it for DQNVEYKGTVW [FHL1_Y117] too.
Result: 0.545

Task: Now give it for EFQLPYFNTVP [BMPR1A_Y457_M460T_YF] too.
Result: 0.549

Task: Now give it for CTTIHYNYMRN [TP53_Y234_C238R] too.
Result: 0.502

Task: Now give it for LTEHGYSFTTT [ACTB_Y198_R196H] too.
Result: 0.533

Task: Now give it for IRRSSYEDSSL [HNF4A_Y144_T139I] too.
Result: 0.543

Task: Now give it for ALETLYKKAVK [CC2D2A_Y381_E376A] too.
Result: 0.366

Task: Now give it for VDGFVYKLHPS [GCK_Y413_S411F] too.
Result: 0.484

Task: Now give it for YSNKLYYQLEQ [PDPR_Y109] too.
Result: 2.11

Task: Now give it for RLKAKYAAATG [GLI3_Y933] too.
Result: 0.526

Task: Now give it for YGMQLYQNYMH [GRB14_Y347] too.
Result: 12.4

Task: Now give it for DGNTRYSTFSE [TKTL1_Y318_D315N] too.
Result: 0.48

Task: Now give it for RILENYGADID [DNAH5_Y596_L591R] too.
Result: 0.719

Task: Now give it for DVLEFCNSKKT [PAK1_Y131_Y131C] too.
Result: 0.483

Task: Now give it for ILGRYYETSSI [PAX2_Y73_G76S] too.
Result: 0.476

Task: Now give it for ASKEPYFVHCI [MYO1D_Y585_R588H_YF] too.
Result: 0.481

Task: Now give it for SRVTQYERNFE [SNX1_Y463_D466N] too.
Result: 0.387

Task: Now give it for KLQKKYGPIYS [CYP17A1_Y60] too.
Result: 0.351

Task: Now give it for RWGQKYMTAVV [CYBA_Y72] too.
Result: 0.783

Task: Now give it for VFFFSYLLKNH [PTEN_Y180_YF] too.
Result: 0.519

Task: Now give it for LIHTKCPQLLP [AHCY_Y143_Y143C] too.
Result: 0.607
